In this section we review reported kon values for a set of binders.
Target: T1, Taq DNA polymerase (Thermus aquaticus, UniProt P19821 1-832)
T1 construct: also called Taq enzyme; Taq DNA enzyme
T1 sequence (P19821 whole entry): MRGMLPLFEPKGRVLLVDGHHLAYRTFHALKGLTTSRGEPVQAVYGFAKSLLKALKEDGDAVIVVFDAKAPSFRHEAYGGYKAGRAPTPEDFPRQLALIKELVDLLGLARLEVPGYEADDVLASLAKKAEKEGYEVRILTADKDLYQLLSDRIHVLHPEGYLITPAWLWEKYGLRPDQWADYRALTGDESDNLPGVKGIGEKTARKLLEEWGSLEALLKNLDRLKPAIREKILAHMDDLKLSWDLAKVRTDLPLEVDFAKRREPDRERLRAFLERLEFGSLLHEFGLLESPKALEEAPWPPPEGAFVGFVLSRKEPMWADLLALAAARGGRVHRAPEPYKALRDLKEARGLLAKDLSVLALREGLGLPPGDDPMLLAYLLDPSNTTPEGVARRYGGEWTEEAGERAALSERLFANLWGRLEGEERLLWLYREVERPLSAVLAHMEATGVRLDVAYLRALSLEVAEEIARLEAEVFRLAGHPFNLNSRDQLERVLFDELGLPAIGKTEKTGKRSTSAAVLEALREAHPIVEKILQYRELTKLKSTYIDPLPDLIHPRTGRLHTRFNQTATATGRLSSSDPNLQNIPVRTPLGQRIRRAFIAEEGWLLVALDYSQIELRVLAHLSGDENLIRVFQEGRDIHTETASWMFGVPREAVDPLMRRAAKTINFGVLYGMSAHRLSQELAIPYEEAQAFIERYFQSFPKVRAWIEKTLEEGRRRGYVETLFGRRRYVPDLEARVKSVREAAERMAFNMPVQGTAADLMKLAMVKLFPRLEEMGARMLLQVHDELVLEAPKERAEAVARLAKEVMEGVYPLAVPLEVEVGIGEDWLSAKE
Experiment: AMC sensor, antibody immobilised
# number only, unit M⁻¹ s⁻¹ dropped from output

Past entries and their recorded results:
Mutation 1-49 (antibody, V domains shown, Mutation 1 background; CDRs built) VH: QVQLQQPGAELVKPGASVRLSCQTSVETFTTYYIYWVKQRPGEGLEWIGGLNPTSNPVFNEKFKSKATLTVDTSSSTAYMQLSSLTSVDSAVYYCTRSVVRRGYYFDYWGQGTALTVSS VL: DIQMTQTTSSLSASLGDRVTISCRASQDINNYVNWYQQKPDGTIKLLIYYTSRLQSGIPSRFSGSGSGTDYSLTIANLEQEDIATYFCQQDDTVPITFGAGTKVELKR	86100
Mutation 1-9 (antibody, V domains shown, Mutation 1 background; CDRs built) VH: QVQLQQPGAELVKPGASVRLSCQTSVETFTTYYIYWVKQRPGEGLEWIGGVNPTSGGPVFNEKFKSKATLTVDTSSSTAYMQLSSLTSVDSAVYYCTRSILRRGYYFDYWGQGTALTVSS VL: DIQMTQTTSSLSASLGDRVTISCRASQDINNYLNWYQQKPDGTIKLLIYYTSRLQSGIPSRFSGSGSGTDYSLTIANLEQEDIATYFCQQDDTIPVTFGAGTKVELKR	78600

Pending binder:
Prompt line: // query kon value for entry Mutation 1-57 (antibody, V domains shown, Mutation 1 background; CDRs built) VH: QVQLQQPGAELVKPGASVRLSCQTSVETFSTYYIYWVKQRPGEGLEWIGGVNPTSNPVFNEKFKSKATLTVDTSSSTAYMQLSSLTSVDSAVYYCTRSVLRRGYYFDYWGQGTALTVSS VL: DIQMTQTTSSLSASLGDRVTISCRASQDINNYLNWYQQKPDGTIKLLIYYTSRLQSGVPSRFSGSGSGTDYSLTIANLEQEDIATYFCQQDDTVPVTFGAGTKVELKR
Response line: 69000

The values you see were collected from patent US20210403601A1.
